observed_property: intrinsic clearance, rat liver microsomes (mL/min/kg)

molecular_string	value_observed
N#Cc1cnc2ccccc2c1OCCO	12.7
O=C1NCN(c2ccccc2)C12CCN(CCCOc1ccc(F)cc1)CC2	548
O=C1c2ccccc2C(=O)N1CCNc1ccc(F)cc1	615

---

cond: pH 6.8
observed_property: log10(aqueous solubility) (log10 of the value in µg/mL)

molecular_string	log10(aqueous solubility)
CC1CCN([C@H](c2ccc(F)cc2)c2ccc([C@@H](C)C(=O)O)cc2-c2ccc(C(F)(F)F)cc2)CC1	1.60
CN(C)C(=O)c1ccc(NC(=O)c2cccc(F)c2)cc1	1.67
CN1CCC(NS(=O)(=O)C2CN(C(=O)c3cccc(Cl)c3)C2)CC1	1.75
Cc1nn(C)c(C)c1NC(=O)CN1CCC2(CCCCC2)CC1	1.94
O=C(Nc1cccnc1)c1ccccc1Cc1ccccc1	1.85
c1ccc(C2(c3ccccc3)CCCN(Cc3nnc(C4CC4)o3)C2)cc1	1.55
Cn1cc(-c2ccnc(/C=C/c3ccc(F)cc3Br)n2)cn1	-0.17
COc1cccc(NC(=O)c2c([O-])n(-c3cccc(OC)c3)n[n+]2C)c1	-0.72
Cc1nc(C)c2c(C)c(C(=O)N(C)Cc3ccc(C)o3)sc2n1	1.57

---

Listing of recorded intrinsic clearance, human liver microsomes by entry.
observed_property: intrinsic clearance, human liver microsomes

molecular_string	value_observed
Cc1ccnc(NC(=O)CN2CCCC2=O)c1	≤ 4.74 mL/min/kg
Cc1noc(NCc2c(C)nn(C)c2C)n1	≤ 4.74 mL/min/kg
Cc1nccc(C2(C)CCN(CC(N)=O)CC2)n1	≤ 4.74 mL/min/kg
c1ccc(COc2ccc(CNCC3CCNCC3)cc2)cc1	≤ 4.74 mL/min/kg
COCc1nc(C2CCN(CCO)CC2)no1	≤ 4.74 mL/min/kg
O=c1c2cccnc2ncn1[C@H]1CCN(Cc2ccccc2)C1	≤ 4.74 mL/min/kg
Cc1nc(-c2ccncc2)cc(N2CCC(CO)CC2)n1	≤ 4.74 mL/min/kg

---

Listing of recorded intrinsic clearance, rat liver microsomes by entry.
observed_property: intrinsic clearance, rat liver microsomes (mL/min/kg)

molecular_string	relation_sign	value_observed
CNc1ncc(CN(C)CCN2CCCCC2)cn1	=	57.2
COc1cccc(OC)c1-c1cc(C(=O)N[C@@H](CC(C)C)C(=O)O)nn1-c1ccnc2cc(Cl)ccc12	=	108
Cc1nc(C)c(C(=O)NCc2ncoc2C)s1	≤	10.7
COCC1(c2nc(-c3ccncc3)nn2Cc2cccc(Cl)c2)CC1	=	1420
N#CC1(NC(=O)CN2CCOCC2)CCCCCC1	=	65.6

---

Listing of recorded MDR1-MDCK efflux ratio by entry.
observed_property: MDR1-MDCK efflux ratio

molecule	value_observed
CCN1CCc2nc(NC(=O)Cc3ccc(Cl)cc3)sc2C1	1.02
Cc1nnc2ccc(N3CCC4(CCCCC4)C3)nn12	0.709
CN(C)C(=O)OCCN1CCC(c2c[nH]c3ncccc23)CC1	6.4
CN(C)C(=O)c1cncc(N(C)CCN(C)C2CCCC2)n1	20.2
COc1ccc2c(c1)C=C(CN1CCC(c3cc(-c4cncnc4)cc(C)n3)CC1)CO2	1.42
CCc1ccc(-c2nccn2CC(=O)Nc2ccc(C)cc2F)nc1	0.725
O=C(NC1CCCC1)c1cc(C2CC2)nc2ccccc12	0.695
CC(=O)Nc1ccc(C(=O)N2CCCCC2c2nc(N)ncc2-c2ccc(Cl)cc2)cc1 (stereo unspecified)	106
CC(C)C[C@@H](C(N)=O)n1ccnc1-c1cccc2ccccc12	47.6
Cc1noc(C)c1CSC(=N)N1CCOCC1	1.21
CN(CC1(CO)CCCC1)C(=O)CCN1CCCCC1=O	21.2

---

Listing of recorded intrinsic clearance, human liver microsomes by entry.
observed_property: intrinsic clearance, human liver microsomes (L/h/kg)

molecular_string	relation_sign	value_observed
CC(C)Nc1ccc(-c2cc3c(cc2CO)OCCO3)cn1	=	0.822
O=C(CCCc1nc2ccccc2[nH]1)N1CCCC1	≤	0.284
CC(=O)Nc1ccc(CNCCOc2ccc(F)cc2F)cc1	=	0.751
Cc1ccc(-n2nc(NCc3cnn(C)c3)cc2C)cc1	≤	0.284
O=C(Nc1ccccc1)N1CCCc2cnc(N3CCOCC3)nc21	≤	0.284
CCc1cc2c(OCC(=O)N3CCCC3)ncnc2s1	=	1.55
N#Cc1ccc(CN2CC(n3cccn3)C2)cc1	≤	0.284

---

cond: pH 6.8
# aqueous solubility >= 40 µg/mL gives met, anything below gives not met

molecular_string	group
N#CCC1(n2cc(-c3ncnc4[nH]ccc34)cn2)CNC1	not met
Cc1cccc(-c2ncc(CNCc3ccccc3-n3cccn3)cn2)c1	not met
CC(C)NC(=O)N1CC[C@H](NC2=Nc3cc(F)ccc3N(CC(F)F)c3ccc(Cl)cc32)C1	not met
Cc1nc(Cl)cc(Nc2ccc3c(c2)N(C)C(=O)CO3)n1	not met
COc1cccc2c1Oc1nc(-c3ccccc3)[nH]c(=S)c1C2	not met
N#Cc1cccc(NC(=O)C2CCC2)c1	not met
O=C(CSc1ncn[nH]1)N(C1CCCCC1)C1CCCCC1	not met
NC(=O)C1CCN(C(=O)CCc2ccc(Cl)cc2)CC1	met
O=C([C@H]1CCCN(Cc2ccc(Cl)cc2)C1)N1CCc2ccccc2C1	met
Cc1noc(C2CCN(CCc3ccccc3)CC2)n1	met
c1ccc(Oc2cccc(CN(CCN3CCOCC3)Cc3cccnc3)c2)cc1	met
Cc1cc(C)c2c(N(C)CCC(C)C)ncnc2n1	not met
c1ccc(Cc2cccc3cc4c(nc23)OCCNC4)cc1	met
O=C(NC1CC1)c1cccc2cccnc12	not met
CC(C)(C)c1ccc(-c2nc3n(c(=O)c2C#N)CCS3)cc1	not met
Cc1cc2occ(CC(=O)NC3CCN(C)CC3)c2cc1C(C)C	not met

---

cond: pH 6.8
observed_property: aqueous solubility (µg/mL)

molecular_string	unit_descriptor	value_observed
O=C(Cc1cccc(I)c1)N1CC(CO)C1	µg/mL	42.1
CN(C)c1nc(CN2CCOCC2)nc2scc(-c3cccs3)c12	µg/mL	57.3
Cc1ccc2c(CC(=O)N(C)Cc3nnc4n3CCC4)coc2c1C	µg/mL	54.5
O=C(NCCc1ccc2c(c1)OCO2)C1CCCC1	µg/mL	42.1
Cc1ccc2nc3c(c(C(=O)NCc4cnn(C)c4)c2c1)CCCC3	µg/mL	56.3

---

cond: pH 6.8
Listing of recorded log10(aqueous solubility) by entry.
observed_property: log10(aqueous solubility) (log10 of the value in µg/mL)

molecular_string	log10(aqueous solubility)
C/N=C(\NC#N)NCCSCc1nc[nH]c1C	1.62
CCOC(=O)c1c(C)[nH]c(CN(Cc2ccccc2)C(=O)c2ccccc2Cl)c1C	0.71
CCC(C)(C)c1ccc(Oc2ccc(NC(=O)Nc3ccccc3OC)cc2)cc1	-0.37
NC(=O)Cc1nc(-c2ccc(Cl)cc2Cl)cs1	1.61
CCOC(=O)c1ccc(NC(=O)Cn2cnc3ccccc32)cc1	1.26
C[C@H]1CN(C2COC2)CCN1c1ccc(Nc2cc(-c3ccnc(N4CCn5c(cc6c5CC(C)(C)C6)C4=O)c3CO)cn(C)c2=O)nc1	1.66
N#Cc1cccc(-c2ccc(=O)n3c2[C@@H]2C[C@@H](CN(Cc4cccs4)C2)C3)c1	1.69
COc1ccc(OC)c(N/C=C2\C(=O)Oc3ccccc3C2=O)c1	-0.15
CCn1c(=O)n(CC)c2cc(N)ccc21	1.57

---

observed_property: log10 intrinsic clearance, rat liver microsomes (log10 of the value in mL/min/kg)

compound	value_observed
CN1CCN(C(=O)c2cc(Br)cnc2Cl)c2cnccc21	1.96
Cc1nccc(NC(=O)CCc2ccncc2)c1Cl	1.86
CO[C@@H](C(=O)Nc1cc2c(C)cc(=O)oc2cc1C)c1ccccc1	2.41
Cc1ccc(-c2cnc3ccccc3n2)cc1N	2.31
Cc1nc(CC(=O)NCc2ccccc2)cs1	1.59
Cc1noc(C2CCN(CCc3ccccc3)CC2)n1	2.65
CCCc1nnc2sc(-c3cc(C(C)C)nn3C)nn12	2.77
Cc1cc(C)cc(OCCN(C)C(=O)NCCN2CCCCC2=O)c1	3.11
COc1cc(OC)cc(C(=O)NCc2noc(-c3ccccc3)n2)c1	2.80
c1ccc(-c2c(-c3ccc(OCCN4CCCC4)cc3)[nH]c3ncnc(NCC4SCCS4)c23)cc1	2.22
Cc1[nH]c2ccc(Cl)cc2c1CC(=O)N1CCC(Cc2ncncc2C(N)=O)CC1	3.07
CN1C(=O)COc2ccc(NC(=O)CCN3C(=O)COc4ccc(Cl)cc43)cc21	3.07
c1ccc(-c2cn(C3CNC3)nn2)cc1	1.46
CN(C)CCN(Cc1ccccc1)Cc1ccccc1O	3.14
CCCCN(C)C(=O)Nc1cc(C)ccn1	2.35
Nc1ccc2c(c1)ncn2-c1ccccc1	1.40
O=C(NCc1nnc2n1-c1ccccc1CC2)c1ccc2ccccc2c1	2.71
Cc1sc(NC(=O)CN2CCOC(C3CCCO3)C2)c(C)c1C (configuration not stated)	2.27
COc1ccc(C)cc1-c1cccnc1O	1.42
CN(C(=O)CSC(C)(C)C)c1ccccc1C#N	2.84
Cc1ccc(S(=O)(=O)Nc2ccccc2-c2nc3ccccc3[nH]2)cc1	2.73
CC(C)(C(=O)NCc1ccccn1)c1ccccc1	2.14
Cc1cc(C)n2nc(C)c(C(=O)NCC3CC3)c2n1	2.03
O=C1CCC(=O)N1CCN1CCCCc2ccccc21	3.17
Cc1ccc(NC(=O)[C@H]2COc3ccccc3O2)nc1	3.12
O=C1CCCC[C@@H]2[C@H](C[C@@H](Cc3ccccc3F)N2C(=O)c2cccc3ncccc23)N1	2.60
CC(C)(C)NC(=O)c1cncn1C1CCN(c2ccc(-c3nnc(C(F)(F)F)o3)cn2)CC1	1.40
COc1cc(CN2CCCNCC2)cc2c1OCO2	1.86
C=CCn1c(=O)c2cnc(Nc3ccc(N4CCN(C)CC4)cc3)nc2n1-c1cccc(C(C)(C)O)n1	1.83
O=C(c1ccc(-n2cccn2)nc1)N1CCN(c2ccccc2O)CC1	2.10
COC(=O)c1c(C)[nH]c(C(=O)OCC(=O)N(C)Cc2cccs2)c1C	2.68
OC1(Cc2nc(-c3ccsc3)no2)CCCCC1	3.02
COc1ccc(C)cc1S(=O)(=O)NCCC(=O)Nc1ccccc1C	3.33
[2H]C([2H])([2H])NC(=O)c1nnc(NC(=O)C2CC2)cc1Nc1cccc(-c2ncn(C)n2)c1OC	1.42
Cc1nc2ccccc2c(N)c1C(=O)/C=C/c1ccccc1	2.96
CC(C)c1nc(O)c2nnn(C[C@@H]3CCCN(C(=O)C(C)(C)C)C3)c2n1	2.45
Cc1cc(C(=O)NCC2(c3ccccc3)CC2)on1	2.04
Cc1cccc(OC2CCN(CC(N)=O)CC2)c1	1.83
Oc1c(C(c2ccc(F)cc2)N2CCCCC2)ccc2cccnc12 (configuration not stated)	2.58
